The reported numbers originate from ChEMBL document CHEMBL3351659.

pIC50: −log10 of the molar value.
// endpoint pIC50 / system Sucrase-isomaltase, intestinal (Rattus norvegicus, UniProt P23739)
measure: pIC50

1. O[C@@H]1[C@@H](O)[C@H](O)C[C@H](N[C@H]2C[C@H](O)[C@@H](O)[C@H](O)[C@@H]2O)[C@@H]1O = 5.40
2. N[C@H]1C[C@@H](O)[C@H](O)[C@@H](O)[C@H]1O = 5.14
3. N[C@@H]1C[C@@H](O)[C@H](O)[C@@H](O)[C@H]1O = 5.17
4. OC1CC(N[C@H]2C[C@@H](O)[C@H](O)[C@@H](O)[C@H]2O)[C@@H](O)[C@@H](O)[C@@H]1O (single isomer, unassigned) = 5.43

###

# protocol details: Inhibition of rat intestinal maltase using maltose substrate incubated for 10 mins
measure: IC50 (µM)

1. N[C@H]1C[C@@H](O)[C@H](O)[C@@H](O)[C@H]1O = 5.8
2. OC1CC(N[C@H]2C[C@@H](O)[C@H](O)[C@@H](O)[C@H]2O)[C@@H](O)[C@@H](O)[C@@H]1O (single isomer, unassigned) = 3.1
3. C[C@H]1O[C@H](O[C@H]2[C@H](O)[C@@H](O)[C@@H](O[C@H]3[C@H](O)[C@@H](O)C(O)O[C@@H]3CO)O[C@@H]2CO)[C@H](O)[C@@H](O)[C@@H]1N[C@H]1C=C(CO)[C@@H](O)[C@H](O)[C@H]1O (stereo not given in full) = 1.5
4. N[C@@H]1C[C@@H](O)[C@H](O)[C@@H](O)[C@H]1O = 4.4
5. O[C@@H]1[C@@H](O)[C@H](O)C[C@H](N[C@H]2C[C@H](O)[C@@H](O)[C@H](O)[C@@H]2O)[C@@H]1O = 3.6
